- Procedure Summary: TRM-201-PK-102 single-dose four-period crossover pharmacokinetic study, fasted healthy subjects
- Format: in vivo, human
- Run Conditions: human, plasma, oral, 12.5 mg, 102 study, body weight 77.1-90 kg, read-out: geometric mean Cmax
Recorded Endpoint: Cmax (ng/mL)

> print(dat)
                                 smiles.str  quantitative.readout
1  CS(=O)(=O)c1ccc(C2=C(c3ccccc3)C(=O)OC2)cc1                   125

###

- Procedure Summary: TRM-201-PK-102 single-dose four-period crossover pharmacokinetic study, fasted healthy subjects
- Assay type: in vivo, human
- Run Conditions: human, plasma, oral, 25 mg, 102 study, 53-60 years, read-out: arithmetic mean Cmax
- Method: A Single-Dose, Open-Label, Phase 1, Four-Period Crossover Pharmacokinetic Study of TRM-201 (Rofecoxib) 12.5 mg, 17.5 mg, 20 mg and 25 mg Administered to Healthy Subjects in a Fasting State, with Comparison to Historical Pharmacokinetic Parameters of Previously Marketed Rofecoxib (“TRM-201-PK-102” or “102 PK Study”) […] In each of the four dosing periods, subjects fasted overnight for at least 10 hours before study drug dosing. […] Pharmacokinetic and safety endpoints were evaluated. […]
Recorded Endpoint: Cmax (ng/mL)

> print(dat)
                                   molecule  unit.annotation  quantitative.readout
1  CS(=O)(=O)c1ccc(C2=C(c3ccccc3)C(=O)OC2)cc1 [TRM-201]            ng/mL                   354

###

- Procedure Summary: TRM-201-PK-102 single-dose four-period crossover pharmacokinetic study, fasted healthy subjects
- Format: in vivo, human
- Run Conditions: male, human, plasma, oral, 12.5 mg, 102 study, males, read-out: geometric mean Cmax
Recorded Endpoint: Cmax

> print(dat)
                                   compound  recorded.endpoint     result
1  CS(=O)(=O)c1ccc(C2=C(c3ccccc3)C(=O)OC2)cc1 [TRM-201]               Cmax  127 ng/mL

###

- Procedure Summary: TRM-201-PK-102 single-dose four-period crossover pharmacokinetic study, fasted healthy subjects
- Assay type: in vivo, human
- Run Conditions: female, human, plasma, oral, 25 mg, 102 study, females, read-out: arithmetic mean AUC0-∞
Recorded Endpoint: AUC(0-inf)

> print(dat)
                                   compound  recorded.endpoint        result
1  CS(=O)(=O)c1ccc(C2=C(c3ccccc3)C(=O)OC2)cc1 [TRM-201]         AUC(0-inf)  5090 ng·h/mL

###

- Procedure Summary: TRM-201-PK-102 single-dose four-period crossover pharmacokinetic study, fasted healthy subjects
- Format: in vivo, human
- Run Conditions: male, human, plasma, oral, 20 mg, 102 study, males, read-out: arithmetic mean AUC0-∞
- Experimental: A Single-Dose, Open-Label, Phase 1, Four-Period Crossover Pharmacokinetic Study of TRM-201 (Rofecoxib) 12.5 mg, 17.5 mg, 20 mg and 25 mg Administered to Healthy Subjects in a Fasting State, with Comparison to Historical Pharmacokinetic Parameters of Previously Marketed Rofecoxib (“TRM-201-PK-102” or “102 PK Study”) […] In each of the four dosing periods, subjects fasted overnight for at least 10 hours before study drug dosing. […] Pharmacokinetic and safety endpoints were evaluated. […]
Recorded Endpoint: AUC(0-inf) (ng·h/mL)

> print(dat)
                                 smiles.str  unit.annotation  quantitative.readout
1  CS(=O)(=O)c1ccc(C2=C(c3ccccc3)C(=O)OC2)cc1          ng·h/mL                  3130
